Data origin: the RNAGym collection of RNA variant scans (doi:10.1093/nar/gkz1192)

Some variants, each annotated with its measured self-cleavage.
B1: CPEB3 Ribozyme (parent)
chain: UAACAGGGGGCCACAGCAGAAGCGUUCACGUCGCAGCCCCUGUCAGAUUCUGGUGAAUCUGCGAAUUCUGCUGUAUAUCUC

# Variants of: B1
# measurement-protocol: self-cleavage, relative activity (ratio to wild type); higher = more cleavage; in vitro, sequencing
Kindly provide the number alone.

Study these solved cases before continuing.
G7C A13U	0.26
G22A A56G	0.17
G33C U41A	0.16
A2U A35C	0.85
U54C U72C	1.08
U48C U76C	0.67
A47U U51C	0.43
U26G U48C	0.22
G53C U60C	0.55
C40U U60C	0.3

Look up and state reported self-cleavage for G6A U41A
0.26

Find the measured self-cleavage of U66C C68U and report it.
0.39

For the variant U31G C34A , give its measured self-cleavage value.
0.14
